Entries below carry reported Kd on c-Cbl (residues 47-435) (Homo sapiens (Human)).
Sequence (P22681 47-435): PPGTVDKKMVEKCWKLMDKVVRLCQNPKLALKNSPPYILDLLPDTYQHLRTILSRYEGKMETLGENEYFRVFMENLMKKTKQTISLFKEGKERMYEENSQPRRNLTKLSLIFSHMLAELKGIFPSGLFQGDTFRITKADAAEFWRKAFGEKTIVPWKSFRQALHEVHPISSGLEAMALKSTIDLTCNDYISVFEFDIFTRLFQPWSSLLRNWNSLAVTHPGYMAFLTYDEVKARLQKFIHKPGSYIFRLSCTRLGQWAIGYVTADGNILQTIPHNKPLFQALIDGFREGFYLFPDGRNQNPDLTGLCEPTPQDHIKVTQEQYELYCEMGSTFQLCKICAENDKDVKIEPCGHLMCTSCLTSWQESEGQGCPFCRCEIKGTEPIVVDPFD
# answer = value followed by unit

Illustrative cases are given below, each with its answer.
> print(dat)
                              line.notation      result
1  Cn1cnnc1[C@]1(c2cccc(N3Cc4c(cc(CNC5(C)CCC5)cc4C(F)(F)F)C3=O)c2)C[S@+]([O-])C1      1.2 µM
2  CCOc1cc(N2Cc3c(cc(CNC4(C)CCC4)cc3C(F)(F)F)C2=O)cc([C@]2(c3nncn3C)C[C@@H](C)C2)c1  0.00074 µM

Then there is this compound:
# Kd of `Cn1cnnc1[C@]1(c2cccc(N3Cc4c(cc(CNC5(C)CCC5)cc4C(F)(F)F)C3=O)c2)C[C@H](OC(F)F)C1` = 0.045 µM
